# Test system: SKOV3
# measurement protocol: Primary qHTS to identify gynecologic anti-cancer compounds using libraries of approved drugs and bioactive compounds (AID 1345084); further: on the % scale 0 is the no-effect control and ±100 the full control effect; nearly all actives have a fitted effect of over 55% in size
# condition: Gynecologic cancer cell panel viability, ATPlite luminescence, 48 h; series mostly up to 57.5 µM
Inconclusive results are not listed. Activity calls are given as the source filed them. The call rests on the fitted dose curve; in most records, active means well fitted cell-killing curve with a large enough effect; inconclusive means small, poorly fitted or top-dose-only effect, or effect the other way; inactive means flat fitted curve, though single readings scatter.
measure name: activity change, negative = cytotoxicity

compound | measure name | readout value
C[C@@H]1O[C@@H](O[C@H]2[C@H](OC(=O)C34CCC5(C)C(=CCC6C7(C)CC(O)C(O[C@@H]8O[C@H](C(=O)O)[C@@H](O)[C@H](O)[C@H]8O)C(C)(C(=O)O)C7CCC65C)C3CC(C)(C)CC4O)O[C@H](C)[C@@H](O)[C@@H]2O)[C@H](O)[C@@H](O[C@@H]2OC[C@](O)(CO)[C@H]2O[C@@H]2O[C@H](CO)[C@@H](O)[C@H](O)[C@H]2O)[C@H]1O (stereo partly drawn) | activity change, negative = cytotoxicity | 13.1% [at 6.55 µM] (inactive)
CC(NCc1ccc(OCc2cccc(F)c2)cc1)C(N)=O (stereo not drawn) | activity change, negative = cytotoxicity | inactive
CCC(C)/C=C(C)/C=C/C1=CC2=C(Cl)C(=O)C(C)(OC(C)=O)C(=O)C2=CN1CCCC(=O)O (stereo not drawn) | activity change, negative = cytotoxicity | inactive
OC[C@H]1O[C@@H](Oc2ccc3c(c2)OC[C@H]2c4cc5c(cc4O[C@@H]32)OCO5)[C@H](O)[C@@H](O)[C@@H]1O | activity change, negative = cytotoxicity | inactive
COc1c(C)c2c(c(O)c1C/C=C(\C)CC/C=C(\C)CCC(=O)O)C(=O)OC2 | activity change, negative = cytotoxicity | inactive
C/C=C(/C)C(=O)O[C@H]1C=C(C)C[C@H](OC(=O)c2ccc(O)cc2)C2[C@](O)(C(C)C)CC[C@@]21C (stereo partly drawn) | activity change, negative = cytotoxicity | inactive
COC(=O)c1cc(CN2CCN(C(=N)N)CC2)cc(C(=O)N2CCN(C(=O)c3ccc(C(=N)N)cc3)CC2)c1 | activity change, negative = cytotoxicity | inactive
COc1ccc(C)c2sc(NC(=O)c3ccncc3)nc12 | activity change, negative = cytotoxicity | inactive
COc1ccc2c(c1)O[C@H](O[C@@H]1O[C@H](CO)[C@@H](O)[C@H](O)[C@H]1O)C(=O)N2 | activity change, negative = cytotoxicity | inactive
CC(=O)OC[C@@]12[C@H](O)C[C@]3(C)C(=CCC4[C@@]5(C)CC[C@H](O[C@@H]6O[C@H](C(=O)O)[C@@H](O[C@@H]7O[C@H](CO)[C@@H](O)[C@H](O)[C@H]7O)[C@H](O)[C@H]6O[C@@H]6O[C@H](CO)[C@@H](O)[C@H](O)[C@H]6O)[C@](C)(CO)C5CC[C@]43C)[C@@H]1CC(C)(C)[C@@H](OC(C)=O)[C@@H]2O (stereo partly drawn) | activity change, negative = cytotoxicity | 8.16% [at 11.6 µM] (inactive)
CCC(NC(=O)CC(NC(=O)C(CO)NC(=O)C(CC)NC(=O)c1ccc[nH]1)c1ccccc1)C(=O)O (stereo not drawn) | activity change, negative = cytotoxicity | inactive
CC(CCC1C(C(=O)O)=CC(=O)CC1(C)C)O[C@@H]1O[C@H](CO)[C@@H](O)[C@H](O)[C@H]1O (stereo partly drawn) | activity change, negative = cytotoxicity | inactive
CCCCNC(=O)[C@@H]1Cc2ccccc2N1C(=O)[C@@H](N)CC | activity change, negative = cytotoxicity | inactive
